// provenance: paper PMC8179002

testName: Relative cell viability in HCHT screening (propidium iodide negative nuclei count)
Assay type: cell-based
testParameters: human, HeLa Kyoto cells, HeLa; tpre 1 h with inhibitor, removal, tinc 0.5 h with 1 (10 µM); read-out: GI50, concentration causing 50% cell growth inhibition
Source text: With COCs 1 and 2 as cell-penetrating reporters, a fully automated, fluorescent microscopy image-based high-content high-throughput (HCHT)[19] inhibitor screening assay was developed. […] Hindered reporter uptake then causes decrease of fluorescence inside of cells (Fig. 3a). Automated data analysis[19] was established to extract average fluorescence intensity per cell and, at the same time, cell viability from propidium iodide negative nuclei count (Fig. 3 and S3–S6 ^†). […]
Bridge positions count the residues as written; N and C are the ends. Peptide text beside a SMILES is read from it.
Measured GI50 at 1 h, listed per entry.
measuredAttribute: GI50 at 1 h

>>> result("N[C@H]1CSSC[C@@H](C(=O)N[C@@H](CCC(=O)O)C(=O)O)NC(=O)CNC1=O [compound 19] (H-CGCE-OH; disulfide 1-3)")
"> 2000 µM"
>>> result("N[C@H]1CSSC[C@@H](C(=O)NCC(=O)O)NC(=O)[C@H](CCC(=O)O)NC1=O [compound 18] (H-CECG-OH; disulfide 1-3)")
"> 2000 µM"
